// provenance: ChEMBL document CHEMBL4257532

- Tested on: C6
- assay method text: Antiproliferative activity against rat C6 cells at 5 to 50 uM after 48 hrs by Neubauer chamber method
- Type: functional, cell-based
The source made the active and inactive calls. No cut-off for these calls is given here.
measure name: Activity

CCCCCCCC/C=C\CCCCCCCC1=C(C(=O)OC)C(c2cccc(O)c2)NC(=O)N1 (configuration not stated): Active
CCCCCCCCCCCCCCCCCC1=C(C(=O)OC)C(c2cccc(O)c2)NC(=S)N1 (configuration not stated): Active
CCCCCCCCCCCCCCCC1=C(C(=O)OC)C(c2cccc(O)c2)NC(=S)N1 (configuration not stated): Active
CCCCCCCC/C=C\CCCCCCCC1=C(C(=O)OC)C(c2cccc(O)c2)NC(=S)N1 (configuration not stated): Active
CCOC(=O)C1=C(C)NC(=S)NC1c1cccc(O)c1 (configuration not stated): Active
CCCCCCCCCCCCCCCC1=C(C(=O)OC)C(c2cccc(O)c2)NC(=O)N1 (configuration not stated): Active

Now consider a different molecule.
Suppose we examine the molecule CCCCCCCCCCCCCCCCCC1=C(C(=O)OC)C(c2cccc(O)c2)NC(=O)N1 (configuration not stated) ; what Activity value has been reported?
Active
